Assay: Solvent mixture solubility tests of (Z)-endoxifen
Type: physicochemical
Conditions: acetone/acetonitrile 50/50 v/v, organic solvent or mixture, thermodynamic from solid, acetone/acetonitrile 50/50 v/v; 100 mg/mL; high temperature; read-out: Solubility HT (100 mg/mL): Sol. HT
Method: To test the solubility of (Z)-endoxifen in varying conditions, 10 mg of (Z)-endoxifen was added to a stoppered tube, and 0.01 ml of the selected solvent was added (1000 mg/ml solution). The tube was shaken vigorously for 1 minute and then incubated at a constant temperature of 25.0° C. for 15 minutes. If the solid was not completed dissolved, the tube was shaken again and placed at the constant temperature of 25.0° C. for another 15 minutes. […]
reported-endpoint: solubility

# input Which solubility value belongs to CC/C(=C(\c1ccc(O)cc1)c1ccc(OCCNC)cc1)c1ccccc1 [(Z)-endoxifen] ?
# output < 100 mg/mL

---

Test: Solvent mixture solubility tests of (Z)-endoxifen
Format: physicochemical
Conditions: heptane/ethyl acetate (50/50 v/v), organic solvent or mixture, thermodynamic from solid, heptane/ethyl acetate (50/50 v/v), high temperature; read-out: Solubility
reported-endpoint: solubility

# input Give the measured solubility of CC/C(=C(\c1ccc(O)cc1)c1ccc(OCCNC)cc1)c1ccccc1 [(Z)-endoxifen] .
# output < 40 mg/mL

---

Test: Solubility testing of (Z)-endoxifen in single solvents
Type: physicochemical
Conditions: heptane, 25 °C, organic solvent or mixture, thermodynamic from solid, solvent heptane; room temperature; read-out: Solubility at RT
reported-endpoint: solubility at 15 min

# input Bench note: what solubility at 15 min did CC/C(=C(\c1ccc(O)cc1)c1ccc(OCCNC)cc1)c1ccccc1 [(Z)-endoxifen] show?
# output < 10000 µg/mL

---

Test: Solubility testing of (Z)-endoxifen in single solvents
Assay type: physicochemical
Details: acetonitrile, 25 °C, organic solvent or mixture, thermodynamic from solid, solvent acetonitrile; room temperature; read-out: Solubility at RT
reported-endpoint: solubility at 15 min

# input Which solubility at 15 min value belongs to CC/C(=C(\c1ccc(O)cc1)c1ccc(OCCNC)cc1)c1ccccc1 [(Z)-endoxifen] ?
# output < 10000 µg/mL

---

Assay: Stability of (Z)-Endoxifen in acetone (HPLC peak table over time)
Assay type: physicochemical
Conditions: acetone, 40° C., 4 hr
reported-endpoint: HPLC peak RT 17.69, RRT 1.09
Answer shape: numeric part, then the unit.

# input Which value of HPLC peak RT 17.69, RRT 1.09 has been reported for CC/C(=C(\c1ccc(O)cc1)c1ccc(OCCNC)cc1)c1ccccc1 [(Z)-endoxifen] in the records?
# output 0.08%

---

Test: Stability of (Z)-Endoxifen in acetone (HPLC peak table over time)
Type: physicochemical
Conditions: acetone, 40° C., 20 hr
reported-endpoint: HPLC peak RT 22.68, RRT 1.39

# input # query: HPLC peak RT 22.68, RRT 1.39 of entry CC/C(=C(\c1ccc(O)cc1)c1ccc(OCCNC)cc1)c1ccccc1 [(Z)-endoxifen]
# output 0.09%

---

Assay: Stability of (Z)-Endoxifen in acetone (HPLC peak table over time)
Format: physicochemical
Conditions: acetone at reflux (56° C.), 19 hr
reported-endpoint: HPLC peak RT 27.45, RRT 1.81 (%)
One number for each entry, in %.

# input // lookup HPLC peak RT 27.45, RRT 1.81 for CC/C(=C(\c1ccc(O)cc1)c1ccc(OCCNC)cc1)c1ccccc1 [(Z)-endoxifen]
# output 0.22

---

Test: Stability of (Z)-Endoxifen in acetone (HPLC peak table over time)
Format: physicochemical
Conditions: acetone at reflux (56° C.), 19 hr
reported-endpoint: E-form, RT 14.58, RRT 0.96 (%)
One number for each entry, in %.

# input Bench note: what E-form, RT 14.58, RRT 0.96 did CC/C(=C(\c1ccc(O)cc1)c1ccc(OCCNC)cc1)c1ccccc1 [(Z)-endoxifen] show?
# output 1.01

---

Assay: Stability of (Z)-Endoxifen in acetone (HPLC peak table over time)
Format: physicochemical
Settings: acetone at reflux (56° C.), 43 hr
reported-endpoint: HPLC peak RT 21.68, RRT 1.43 (%)
Give bare numbers, in %.

# input What measured HPLC peak RT 21.68, RRT 1.43 goes with CC/C(=C(\c1ccc(O)cc1)c1ccc(OCCNC)cc1)c1ccccc1 [(Z)-endoxifen] ?
# output 0.13

---

Experiment: Stability of (Z)-Endoxifen in acetone (HPLC peak table over time)
Assay type: physicochemical
Details: acetone at reflux (56° C.), 27 hr
reported-endpoint: HPLC peak RT 27.15, RRT 1.79 (%)
Answers are plain numbers, in %.

# input I'd like to know its HPLC peak RT 27.15, RRT 1.79. The compound in question is CC/C(=C(\c1ccc(O)cc1)c1ccc(OCCNC)cc1)c1ccccc1 [(Z)-endoxifen]
# output 0.03

---

Assay: Solvent mixture solubility tests of (Z)-endoxifen
Format: physicochemical
Settings: heptane/2-propanol 50/50 v/v, organic solvent or mixture, thermodynamic from solid, heptane/2-propanol 50/50 v/v; 100 mg/mL; high temperature; read-out: Solubility HT (100 mg/mL): Sol. HT
reported-endpoint: solubility

# input Could you tell me which solubility is on file for CC/C(=C(\c1ccc(O)cc1)c1ccc(OCCNC)cc1)c1ccccc1 [(Z)-endoxifen] ?
# output < 100 mg/mL

---

Test: Stability of (Z)-Endoxifen in acetone (HPLC peak table over time)
Type: physicochemical
Conditions: acetone at reflux (56° C.), 43 hr
reported-endpoint: HPLC peak RT 27.15, RRT 1.79 (%)
One number for each entry, in %.

# input Reported HPLC peak RT 27.15, RRT 1.79, molecule CC/C(=C(\c1ccc(O)cc1)c1ccc(OCCNC)cc1)c1ccccc1 [(Z)-endoxifen] : ____
# output 0.04

---

Experiment: Stability of (Z)-Endoxifen in acetone (HPLC peak table over time)
Format: physicochemical
Conditions: acetone, 40° C., T0
reported-endpoint: HPLC peak RT 17.69, RRT 1.09 (%)
Answers are plain numbers, in %.

# input So what does the record say about HPLC peak RT 17.69, RRT 1.09 for CC/C(=C(\c1ccc(O)cc1)c1ccc(OCCNC)cc1)c1ccccc1 [(Z)-endoxifen] ?
# output 0.08

---

Assay: Stability of (Z)-Endoxifen in acetone (HPLC peak table over time)
Format: physicochemical
Settings: acetone, 40° C., 20 hr
reported-endpoint: HPLC peak RT 17.69, RRT 1.09 (%)
One number for each entry, in %.

# input Which HPLC peak RT 17.69, RRT 1.09 is reported for this molecule? CC/C(=C(\c1ccc(O)cc1)c1ccc(OCCNC)cc1)c1ccccc1 [(Z)-endoxifen]
# output 0.08

---

Experiment: Stability of (Z)-Endoxifen in acetone (HPLC peak table over time)
Format: physicochemical
Conditions: acetone at reflux (56° C.), 43 hr
reported-endpoint: HPLC peak RT 22.88, RRT 1.51 (%)
Numbers only, in %.

# input What measured HPLC peak RT 22.88, RRT 1.51 goes with CC/C(=C(\c1ccc(O)cc1)c1ccc(OCCNC)cc1)c1ccccc1 [(Z)-endoxifen] ?
# output 0.05

---

Assay: Solubility testing of (Z)-endoxifen in single solvents
Format: physicochemical
Conditions: tetrahydrofuran, 25 °C, organic solvent or mixture, thermodynamic from solid, solvent tetrahydrofuran; room temperature; read-out: Solubility at RT
reported-endpoint: solubility at 15 min

# input Given the molecule CC/C(=C(\c1ccc(O)cc1)c1ccc(OCCNC)cc1)c1ccccc1 [(Z)-endoxifen] , what is its reported solubility at 15 min?
# output 111 to 125 mg/mL

---

Assay: Solubility testing of (Z)-endoxifen in single solvents
Assay type: physicochemical
Conditions: acetone, 25 °C, organic solvent or mixture, thermodynamic from solid, solvent acetone; room temperature; read-out: Solubility at RT
Protocol: To test the solubility of (Z)-endoxifen in varying conditions, 10 mg of (Z)-endoxifen was added to a stoppered tube, and 0.01 ml of the selected solvent was added (1000 mg/ml solution). The tube was shaken vigorously for 1 minute and then incubated at a constant temperature of 25.0° C. for 15 minutes. If the solid was not completed dissolved, the tube was shaken again and placed at the constant temperature of 25.0° C. for another 15 minutes. […]
reported-endpoint: solubility at 15 min (µg/mL)
One number for each entry, in µg/mL.

# input Need solubility at 15 min of CC/C(=C(\c1ccc(O)cc1)c1ccc(OCCNC)cc1)c1ccccc1 [(Z)-endoxifen] , thanks.
# output 10000

---

Experiment: Stability of (Z)-Endoxifen in acetone (HPLC peak table over time)
Assay type: physicochemical
Conditions: acetone, 40° C., 20 hr
reported-endpoint: E-form, RT 15.40, RRT 0.95 (%)
Give bare numbers, in %.

# input Returns the measured E-form, RT 15.40, RRT 0.95 for the input compound. Input: CC/C(=C(\c1ccc(O)cc1)c1ccc(OCCNC)cc1)c1ccccc1 [(Z)-endoxifen]
# output 1.03

---

Test: Solvent mixture solubility tests of (Z)-endoxifen
Type: physicochemical
Details: acetone/acetonitrile (50/50 v/v), organic solvent or mixture, thermodynamic from solid, acetone/acetonitrile (50/50 v/v), high temperature; read-out: Solubility
reported-endpoint: solubility

# input Recorded solubility of CC/C(=C(\c1ccc(O)cc1)c1ccc(OCCNC)cc1)c1ccccc1 [(Z)-endoxifen] , please.
# output < 40 mg/mL
